Reported viability, T/C values for the following compounds.
Test system: 889142-216-R-J1-PDC complex spheroid viability;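 note: spheroids exposed to compounds for seven days; 100% = DMSO vehicle control viability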
method: Anticancer human tumor 889142-216-R-J1-PDC patient-derived bladder carcinoma cell line growth inhibition [POLQ]
test_conditions: second compound 0.1 µM; first compound 0.316 µM; active compounds read low

C=CC(=O)N1CCN(c2nc(=O)n(-c3c(C)ccnc3C(C)C)c3nc(-c4c(O)cccc4F)c(F)cc23)C(C)C1 (stereo not given) + COC1C(OC(N)=O)C(O)C(Oc2ccc3c(O)c(NC(=O)c4ccc(O)c(CC=C(C)C)c4)c(=O)oc3c2C)OC1(C)C : 116%
O=C(c1cc(Cc2n[nH]c(=O)c3ccccc23)ccc1F)N1CCN(C(=O)C2CC2)CC1 + Cc1cccc(N(C)C(=O)C2C(O)CCN2c2nc(C)cc(C(F)(F)F)c2C#N)c1 : 95%
Nc1ccn(C2OC(CO)C(O)C2(F)F)c(=O)n1 (stereo not given) + Nc1ccc(C#CCN(C(=O)Cc2ncc(C(F)(F)F)cc2C(F)(F)F)c2ccc(F)cc2)nn1 : 48.9%

Report viability, T/C for O=C(Nc1ccc(O)c(NS(=O)(=O)c2ccc(F)cc2)c1)c1ccc(-c2ccccc2)cc1 + Cc1cccc(N(C)C(=O)C2C(O)CCN2c2nc(C)cc(C(F)(F)F)c2C#N)c1 please.
98.1%

Item C=CCn1c(=O)c2cnc(Nc3ccc(N4CCN(C)CC4)cc3)nc2n1-c1cccc(C(C)(C)O)n1 + COC1C(OC(N)=O)C(O)C(Oc2ccc3c(O)c(NC(=O)c4ccc(O)c(CC=C(C)C)c4)c(=O)oc3c2C)OC1(C)C has what recorded viability, T/C?
60.9%
